- experimentalDetails: Cytotoxicity against human HuH7 cells up to 15 uM after 48 hrs by Alamar Blue assay
- Format: cell-based
- appliedConditions: huh-7, 48 h
readoutKind: Activity

Illustrative cases are given below, each with its answer.
[
  {
    "compound": "COc1ccc(C(=O)O[C@H]2CC[C@@H]3C(=C[C@H](OC)[C@@H]4[C@@]3(C)CC[C@]3(C)[C@@H]([C@H](C)C[C@H](C=C(C)C)OC(=O)c5ccc(OC)cc5)CC[C@@]43C)C2(C)C)cc1 [KARAVOATE N]",
    "Activity": "Non-toxic"
  },
  {
    "compound": "CCC(=O)O[C@@H](C=C(C)C)C[C@@H](C)[C@H]1CC[C@@]2(C)[C@@H]3[C@@H](OC)C=C4[C@@H](CC[C@H](O)C4(C)C)[C@]3(C)CC[C@]12C [KARAVOATE C]",
    "Activity": "Non-toxic"
  },
  {
    "compound": "CO[C@H]1C=C2[C@@H](CC[C@H](OC(=O)c3ccccc3)C2(C)C)[C@]2(C)CC[C@]3(C)[C@@H]([C@H](C)C[C@H](C=C(C)C)OC(=O)c4ccccc4)CC[C@@]3(C)[C@H]12 [KARAVOATE H]",
    "Activity": "Non-toxic"
  },
  {
    "compound": "CCCC(=O)O[C@H]1CC[C@@H]2C(=C[C@H](OC)[C@@H]3[C@@]2(C)CC[C@]2(C)[C@@H]([C@H](C)C[C@H](C=C(C)C)OC(=O)CCC)CC[C@@]32C)C1(C)C [KARAVOATE F]",
    "Activity": "Non-toxic"
  },
  {
    "compound": "CO[C@H]1C=C2[C@@H](CC[C@H](OC(C)=O)C2(C)C)[C@]2(C)CC[C@]3(C)[C@@H]([C@H](C)C[C@H](C=C(C)C)OC(C)=O)CC[C@@]3(C)[C@H]12 [KARAVOATE B]",
    "Activity": "Non-toxic"
  }
]

Give its Activity value. Item: CCCC(=O)O[C@@H](C=C(C)C)C[C@@H](C)[C@H]1CC[C@@]2(C)[C@@H]3[C@@H](OC)C=C4[C@@H](CC[C@H](O)C4(C)C)[C@]3(C)CC[C@]12C [KARAVOATE E]
Toxic

Fill in: Activity of COc1ccc(C(=O)O[C@@H](C=C(C)C)C[C@@H](C)[C@H]2CC[C@@]3(C)[C@@H]4[C@@H](OC)C=C5[C@@H](CC[C@H](O)C5(C)C)[C@]4(C)CC[C@]23C)cc1 [KARAVOATE M] is ___
Non-toxic

Ref: ChEMBL document CHEMBL3351681
